tested on: K. pneumoniae ATCC 700603; type: cell-based, Klebsiella pneumoniae; settings: median of triplicate
Positions of bridges follow the written chain, without caps; N, C: chain ends. Non-standard residues stand in square brackets, D forms with d. Residues, ends and D or L forms follow the SMILES beside them. *: point of attachment. Ethyl(2-OBz) = O=C(OCC*)c1ccccc1; Dab = NCC[C@H](N)C(=O)O; Butyryl = CCCC(=O)*
observed_property: MIC K. pneumoniae ATCC 700603 (µg/mL)

| molecule | measured_result |
| --- | --- |
| CCCC(=O)N[C@@H](CSCCOC(=O)c1ccccc1)C(=O)N[C@@H](CCN)C(=O)N[C@H](C(=O)N[C@@H](CCN)C(=O)N[C@H]1CCNC(=O)[C@H]([C@@H](C)O)NC(=O)[C@H](CCN)NC(=O)[C@H](CCN)NC(=O)[C@H](CSCCOC(=O)c2ccccc2)NC(=O)[C@@H](Cc2ccccc2)NC(=O)[C@H](CCN)NC1=O)[C@@H](C)O [Compound 50] (Butyryl-C(Ethyl(2-OBz))[Dab]T[Dab][Dab][Dab][dF]C(Ethyl(2-OBz))[Dab][Dab]T; lactam 5-C) | 1 |
